- Tested System: DmpR (Pseudomonas putida, UniProt Q7WSM9, C119S/C137S)
- Protocol Text: ([…] Å) and isothermal titration calorimetry
- Format: binding
Measurement Type: Kd

Q) GET /values?readout=Kd&item= Oc1ccccc1
A) ~12 µM
